Cited source: patent US11155557B2

Biological target: isolated recombinant JAK2 kinase domain (Homo sapiens (Human))
Assay: JAK2 enzyme assay (Caliper LabChip, Ki)
Settings: read-out: JAK2 Ki
MEASURED_ATTRIBUTE: Ki (nM)
Expressed in nM, but write only the number.

A selection of reference data follows.
Field Ki (isolated recombinant JAK2 kinase domain (Homo sapiens (Human))), entry C[C@H]1CNc2cc(OC(F)F)c(-c3n[nH]cc3NC(=O)c3cnn4cccnc34)cc2O1 : 0.17

Field Ki (isolated recombinant JAK2 kinase domain (Homo sapiens (Human))), entry CC1CSc2cc(-c3nn(CC(=O)N4CC=CCC4)cc3NC(=O)c3cnn4cccnc34)c(OC(F)F)cc2N1 (single isomer, unassigned) [Example 112] : 0.18

Field Ki (isolated recombinant JAK2 kinase domain (Homo sapiens (Human))), entry CN(C)C(=O)Cn1cc(NC(=O)c2cnn3cccnc23)c(-c2cc3cnsc3cc2OC(F)F)n1 : 0.97

Field Ki (isolated recombinant JAK2 kinase domain (Homo sapiens (Human))), entry CN(C)C(=O)Cn1cc(NC(=O)c2cnn3cccnc23)c(-c2cc3sncc3cc2OC(F)F)n1 : 0.47

Field Ki (isolated recombinant JAK2 kinase domain (Homo sapiens (Human))), entry Cn1cc(NC(=O)c2cnn3cccnc23)c(-c2cc3ccccc3cc2OC(F)F)n1 : 0.12

Next:
Field Ki (isolated recombinant JAK2 kinase domain (Homo sapiens (Human))), entry CC1(C)COc2cc(OC(F)F)c(-c3n[nH]cc3NC(=O)c3cnn4cccnc34)cc2C1=O : 0.36

Field Ki (isolated recombinant JAK2 kinase domain (Homo sapiens (Human))), entry O=C(Nc1c[nH]nc1-c1cc2ccccc2cc1OC(F)F)c1cnn2cccnc12 : 0.14

Field Ki (isolated recombinant JAK2 kinase domain (Homo sapiens (Human))), entry Cn1cc(NC(=O)c2cnn3cccnc23)c(-c2cc3sc(C(=O)N4CCNCC4)cc3cc2OC(F)F)n1 : 1.85

Field Ki (isolated recombinant JAK2 kinase domain (Homo sapiens (Human))), entry CC1CNc2cc(OC(F)F)c(-c3n[nH]cc3NC(=O)c3cnn4cccnc34)cc2S1 (stereo not drawn) [Example 37] : 0.05

----------
Target: isolated recombinant JAK1 kinase domain (Homo sapiens (Human))
Sequence (P23458 875-1153): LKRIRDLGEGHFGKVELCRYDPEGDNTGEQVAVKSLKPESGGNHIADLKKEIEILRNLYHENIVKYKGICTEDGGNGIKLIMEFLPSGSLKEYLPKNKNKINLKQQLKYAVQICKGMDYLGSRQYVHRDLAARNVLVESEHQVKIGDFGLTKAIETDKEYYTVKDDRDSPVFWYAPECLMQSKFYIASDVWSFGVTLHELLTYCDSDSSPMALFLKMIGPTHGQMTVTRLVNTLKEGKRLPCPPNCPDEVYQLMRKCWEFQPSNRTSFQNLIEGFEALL
Test: JAK1 enzyme assay (Caliper LabChip, Ki)
Assay type: biochemical
MEASURED_ATTRIBUTE: pKi
Would you please state pKi, meaning minus log10 of the concentration in mol/L, as a bare number?

Data point: N#Cc1cc2cc(OC(F)F)c(-c3nn(CC(=O)N4CCC(N5CCOCC5)CC4)cc3NC(=O)c3cnn4cccnc34)cc2s1 [Example 55] ; pKi = 9.39

Data point: COc1cc2cc(C)sc2cc1-c1n[nH]cc1NC(=O)c1cnn2cccnc12 [Example 22] ; pKi = 9.72

Next:
Data point: O=C(Nc1c[nH]nc1-c1cc2c(cc1OC(F)F)SCCO2)c1cnn2cccnc12 [Example 151] ; pKi = 9.11

Data point: COc1cc2c(cc1-c1n[nH]cc1NC(=O)c1cnn3cccnc13)CCC2 [Example 27] ; pKi = 9.05

Data point: O=C(Nc1c[nH]nc1-c1cc2c(cc1OC(F)F)CCC2)c1cnn2cccnc12 [Example 26] ; pKi = 9.72

Data point: CN1CCC[C@@H]1Cn1cc(NC(=O)c2cnn3cccnc23)c(-c2cc3c(cc2OC(F)F)NCCS3)n1 [Example 72] ; pKi = 9.66

Data point: Cn1nncc1Cn1cc(NC(=O)c2cnn3cccnc23)c(-c2cc3c(cc2OC(F)F)NCCO3)n1 [Example 133] ; pKi = 9.59

Data point: CCN1CCN(C(=O)Cn2cc(NC(=O)c3cnn4cccnc34)c(-c3cc4cn[nH]c4cc3OC(F)F)n2)CC1 [Example 53] ; pKi = 9.60

----------
Below is a list of entries, each paired with its recorded log10 of IC50 value.
Test system: JAK1-dependent STAT6 phosphorylation in BEAS-2B human bronchial epithelial cells
Assay: JAK1 pathway assay: IL-13 stimulated STAT6 phosphorylation in BEAS-2B cells
Type: cell-based
Conditions: Homo sapiens, BEAS-2B, BEAS-2B cells, IL-13 stimulation; read-out: IL-13 p-STAT6 BEAS-2B IC50
Use the decimal logarithm of IC50 (nM).

Data point: CC1CNc2cc(OC(F)F)c(-c3nn(CC(=O)N4CC=CCC4)cc3NC(=O)c3cnn4cccnc34)cc2S1 (single isomer, unassigned) [Example 103] ; log10 of IC50 = 1.08

Data point: COc1cc2[nH]cnc2cc1-c1n[nH]cc1NC(=O)c1cnn2cccnc12 [Example 31] ; log10 of IC50 = 3.84

Data point: O=C(Nc1cn(C2COC2)nc1-c1cc2c(cc1OC(F)F)NCCO2)c1cnn2cccnc12 [Example 84] ; log10 of IC50 = 0.90

Next:
Data point: CN(C)C(=O)Cn1cc(NC(=O)c2cnn3cccnc23)c(-c2cc3sncc3cc2OC(F)F)n1 [Example 129] ; log10 of IC50 = 1.04

Data point: CNCCn1cc(NC(=O)c2cnn3cccnc23)c(-c2cc3c(cc2OC(F)F)NCCS3)n1 [Example 81] ; log10 of IC50 = 0.85

Data point: COC(=O)Cn1cc(NC(=O)c2cnn3cccnc23)c(-c2cc3sc(C(N)=O)cc3cc2OC(F)F)n1 [Example 92] ; log10 of IC50 = 1.96

Data point: O=C(Nc1c[nH]nc1-c1cc2c(cc1OC(F)F)NCCS2)c1cnn2cccnc12 [Example 12] ; log10 of IC50 = 0.78

----------
Molecular target: isolated recombinant JAK2 kinase domain (Homo sapiens (Human), UniProt O60674)
Sequence (O60674 849-1124): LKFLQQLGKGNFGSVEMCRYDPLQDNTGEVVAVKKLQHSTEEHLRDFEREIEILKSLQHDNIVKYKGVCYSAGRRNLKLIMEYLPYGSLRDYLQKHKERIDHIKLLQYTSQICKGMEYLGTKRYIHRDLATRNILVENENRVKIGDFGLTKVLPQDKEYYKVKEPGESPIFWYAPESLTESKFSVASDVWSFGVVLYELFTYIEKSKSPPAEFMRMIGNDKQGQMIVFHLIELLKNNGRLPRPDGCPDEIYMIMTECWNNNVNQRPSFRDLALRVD
Assay: JAK2 enzyme assay (Caliper LabChip, Ki)
Conditions: read-out: JAK2 Ki
Below is a list of entries, each paired with its recorded Ki value.
Expressed in nM, but write only the number.

A selection of reference data follows.
Data point: CC1(C)CNc2cc(OC(F)F)c(-c3n[nH]cc3NC(=O)c3cnn4cccnc34)cc2S1 [Example 110] ; Ki = 0.05

Data point: COc1cc2cc(C)sc2cc1-c1n[nH]cc1NC(=O)c1cnn2cccnc12 [Example 22] ; Ki = 0.12

Data point: Cc1cc2cc(OC(F)F)c(-c3n[nH]cc3NC(=O)c3cnn4cccnc34)cc2s1 [Example 25] ; Ki = 0.06

Data point: CN(CCC#N)C1CCN(C(=O)Cn2cc(NC(=O)c3cnn4cccnc34)c(-c3cc4ccccc4cc3OC(F)F)n2)CC1 [Example 63] ; Ki = 0.58

Data point: CN1CCC(n2cc(NC(=O)c3cnn4cccnc34)c(-c3cc4c(cc3OC(F)F)NCCS4)n2)C1=O (single isomer, unassigned) [Example 126] ; Ki = 0.43

Data point: O=C(Nc1cn(CC(=O)N2CCCCC2)nc1-c1cc2c(cc1OC(F)F)NCCS2)c1cnn2cccnc12 [Example 51] ; Ki = 0.1

Data point: Cn1nncc1Cn1cc(NC(=O)c2cnn3cccnc23)c(-c2cc3c(cc2OC(F)F)NCCO3)n1 [Example 133] ; Ki = 0.21

Data point: NCC1CNc2cc(OC(F)F)c(-c3n[nH]cc3NC(=O)c3cnn4cccnc34)cc2S1 (racemic) [Example 38] ; Ki = 0.29

Next:
Data point: Cn1nnc(Cn2cc(NC(=O)c3cnn4cccnc34)c(-c3cc4c(cc3OC(F)F)NCCS4)n2)n1 [Example 128] ; Ki = 0.09

Data point: O=C(Nc1cn(CCN2CCOCC2)nc1-c1cc2ccccc2cc1OC(F)F)c1cnn2cccnc12 [Example 85] ; Ki = 1.69

Data point: O=C(Nc1c[nH]nc1-c1cc2c(cc1OC(F)F)CCC2)c1cnn2cccnc12 [Example 26] ; Ki = 0.08

Data point: CC1CNc2cc(OC(F)F)c(-c3nn(CCN)cc3NC(=O)c3cnn4cccnc34)cc2S1 (racemic) [Example 80] ; Ki = 0.17

Data point: O=C(Nc1cn(C2COC2)nc1-c1cc2c(cc1OC(F)F)NCCO2)c1cnn2cccnc12 [Example 84] ; Ki = 0.12

Data point: Cn1cc(NC(=O)c2cnn3cccnc23)c(-c2cc3c(cc2OC(F)F)NCCS3)n1 [Example 88] ; Ki = 0.1

Data point: CC1CSc2cc(-c3nn(CC(=O)N(C)C)cc3NC(=O)c3cnn4cccnc34)c(OC(F)F)cc2N1 (single isomer, unassigned) [Example 114] ; Ki = 0.24

Data point: CCN1CCN(C(=O)Cn2cc(NC(=O)c3cnn4cccnc34)c(-c3cc4cn[nH]c4cc3OC(F)F)n2)CC1 [Example 53] ; Ki = 0.39

----------
Target: isolated recombinant JAK2 kinase domain (Homo sapiens (Human), UniProt O60674)
Experiment: JAK2 enzyme assay (Caliper LabChip, Ki)
Details: read-out: JAK2 Ki
Below is a list of entries, each paired with its recorded pKi value.
Would you please state pKi, meaning minus log10 of the concentration in mol/L, as a bare number?

Field pKi (isolated recombinant JAK2 kinase domain (Homo sapiens (Human), UniProt O60674)), entry O=C(Nc1c[nH]nc1-c1cc2cnsc2cc1OC(F)F)c1cnn2cccnc12 : 10.10

Field pKi (isolated recombinant JAK2 kinase domain (Homo sapiens (Human), UniProt O60674)), entry CN1CCC[C@@H]1Cn1cc(NC(=O)c2cnn3cccnc23)c(-c2cc3c(cc2OC(F)F)NCCS3)n1 : 9.66

Field pKi (isolated recombinant JAK2 kinase domain (Homo sapiens (Human), UniProt O60674)), entry COc1cc2sncc2cc1-c1n[nH]cc1NC(=O)c1cnn2cccnc12 : 9.40

Field pKi (isolated recombinant JAK2 kinase domain (Homo sapiens (Human), UniProt O60674)), entry O=C(Nc1cn(Cc2ncco2)nc1-c1cc2c(cc1OC(F)F)NCCO2)c1cnn2cccnc12 : 9.55

Field pKi (isolated recombinant JAK2 kinase domain (Homo sapiens (Human), UniProt O60674)), entry O=C(Nc1cn(C2COC2)nc1-c1cc2sncc2cc1OC(F)F)c1cnn2cccnc12 : 9.68
